Reported IC50 (read off the curve) values for a set of binders
- assay_target: his-labeled human IL-13 (immunogen A) (human) (UniProt P35225)
- test_summary: FACS blocking assay: antibody titrated with biotin-labeled immunogen A (30 ng/mL); blocked partner IL-13Ra1/IL-4Ra on HEK293 clone 4C1; Alexa 488 streptavidin
Give the value in nM but do not write nM after it.

# binder, IC50 (read off the curve) (nM)
measured = [
    ("c70F10A10 (mouse-human chimeric IL-13 antibody) (antibody, V domains shown) VH: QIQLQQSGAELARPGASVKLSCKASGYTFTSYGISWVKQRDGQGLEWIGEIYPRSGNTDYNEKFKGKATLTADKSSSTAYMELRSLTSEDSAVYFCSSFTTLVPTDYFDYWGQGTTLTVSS VL: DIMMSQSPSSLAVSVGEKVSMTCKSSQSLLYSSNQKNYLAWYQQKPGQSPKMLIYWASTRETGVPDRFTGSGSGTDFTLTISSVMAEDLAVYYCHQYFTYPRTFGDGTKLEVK", 1),
    ("c28A2E11 (mouse-human chimeric IL-13 antibody) (antibody, V domains shown) VH: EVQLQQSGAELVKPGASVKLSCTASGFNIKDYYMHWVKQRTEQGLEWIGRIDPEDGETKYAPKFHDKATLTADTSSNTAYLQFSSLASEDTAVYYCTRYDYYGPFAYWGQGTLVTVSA VL: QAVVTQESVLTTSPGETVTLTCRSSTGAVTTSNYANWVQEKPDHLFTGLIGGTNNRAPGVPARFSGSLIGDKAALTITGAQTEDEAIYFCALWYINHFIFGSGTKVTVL", 1),
]

Query binder follows.
Could you share which IC50 (read off the curve) value was measured for 28A2E11 (lead antibody, mouse hybridoma) (antibody, V domains shown, Mouse monoclonal antibody purified from hybridoma supernatant on Protein G) VH: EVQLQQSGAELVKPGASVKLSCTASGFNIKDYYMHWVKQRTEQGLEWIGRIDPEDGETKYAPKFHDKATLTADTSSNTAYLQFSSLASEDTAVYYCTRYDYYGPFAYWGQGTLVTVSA VL: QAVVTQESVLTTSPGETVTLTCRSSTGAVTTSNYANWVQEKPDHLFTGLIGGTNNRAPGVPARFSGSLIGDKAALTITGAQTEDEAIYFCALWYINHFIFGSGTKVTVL ? 0.7
